Data origin: patent US20210070843A1

molecular target: full-length H5 A/Vietnam/1203/2004 HA expressed on 293T cells (influenza A virus A/Vietnam/1203/2004 (H5N1)); assay: flow cytometry, HA-expressing 293T
Would you please tag the item class 1 when its max. MFI is 400 MFI or above, and class 0 when it is below?

IN: Hi, just wondering whether S11 (antibody, V domains shown) VH: EVQLVESGGGLVQPGGSLRLSCAASGFTIDNGGIHWVRQAPGKGLEWVAWIGPYGGSTSYADSVKGRFTISADTSKNTAYLQMNSLRAEDTAVYYCARFGFGLHDLMDYWGQGTLVTVSS VL: DIQMTQSPSSLSASVGDRVTITCRASQDVYSWVAWYQQKPGKAPKLLIYYSSFLYSGVPSRFSGSGSGTDFTLTISSLQPEDFATYYCQQYYNGPLTFGQGTKVEIKR shows max. MFI of 400 MFI or higher.
OUT: class 1

IN: Hi, just wondering whether S48 (antibody, V domains shown) VH: EVQLVESGGGLVQPGGSLRLSCAVSGFTIGDGSIHWVRQAPGKGLEWVASIGPYGGSTYYADSVKGRFTISADTSKNTAYLQMNSLRAEDTAVYYCARFHYGYWNNMDYWGQGTLVTVSS VL: DIQMTQSPSSLSASVGDRVTITCRASQDVGWWVAWYQQKPGKAPKLLIYGTRWLYSGVPSRFSGSGSGTDFTLTISSVQPEDFATYYCQQYYSGPITFGQGTKVEIKR shows max. MFI of 400 MFI or higher.
OUT: class 1

IN: Hi, just wondering whether P58 (antibody, V domains shown) VH: EVQLVESGGGLVQPGGSLRLSCAASGFTIGGGGIHWVRQAPGKGLEWVAWIWPYWGYTYYADSVKGRFTISADTSKNTAYLQMNSLRAEDTAVYYCARFNSYSYSGVMDYWGQGTLVTVSS VL: DIQMTQSPSSLSASVGDRVTITCRASQDVYSYVAWYQQKPGKAPKLLISSSRGLYSGVPSRFSGSGSGTDFTLTISSLQPEDFATYYCQQYSSFPITFGQGTKVEIKR shows max. MFI of 400 MFI or higher.
OUT: class 1

IN: Hi, just wondering whether P03 (antibody, V domains shown) VH: EVQLVESGGGLVQPGGSLRLSCAASGFTIDSFGIHWVRQAPGKGLEWVAFIGPFGGSTFYADSVKGRFTISADTSKNTAYLQMNSLRAEDTAVYYCARFDSNSYSYHGIMDYWGQGTLVTVSS VL: DIQMTQSPSSLSASVGDRVTITCRASQDVWGYVAWYQQKPGKAPKLLISWSGSLYSGVPSRFSGSGSGTDFTLTISSLQPEDFATYYCQQYYNWPVTFGQGTKVEIKR shows max. MFI of 400 MFI or higher.
OUT: class 0

IN: Hi, just wondering whether P38 (antibody, V domains shown) VH: EVQLVESGGGLVQPGGSLRLSCAASGFTINDGGIHWVRQAPGKGLEWVAFIGPYGGSTFYADSVKGRFTISADTSKNTAYLQMNSLRAEDTAVYYCAGFIGDYSSYHGVMDYWGQGTLVTVSS VL: DIQMTQSPSSLSASVGDRVTITCRASQDVWGYVAWYQQKPGKAPKLLISWPGGLYSGVPSRFSGSGSGTDFTLTISSLQPEDFATYYCQQYSSFPLTFGQGTKVEIKR shows max. MFI of 400 MFI or higher.
OUT: class 0
